B1: CPEB3 Ribozyme (parent)
chain: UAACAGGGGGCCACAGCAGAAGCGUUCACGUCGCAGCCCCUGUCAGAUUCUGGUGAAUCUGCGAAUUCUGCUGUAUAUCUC

Variants of: B1
Assay: self-cleavage, relative activity (ratio to wild type); higher = more cleavage; in vitro, sequencing
Could you please report measured self-cleavage for the items listed next?
Hey, just send me the number, nothing else.

Looking up G6U A56G , I see its self-cleavage listed as 0.41

Looking up A35U A47C , I see its self-cleavage listed as 0.4

Looking up C17G A18U , I see its self-cleavage listed as 0.4

Looking up C11A A75U , I see its self-cleavage listed as 0.4

Looking up U51C C62G , I see its self-cleavage listed as 0.39
